All values here come from paper PMC8667043.

Target: NO66 (Homo sapiens, UniProt Q9H6W3)
Construct: histidine tag (TEV-cleavable) (cleaved yes); made in house; host or cells: E. coli BL21(DE3)-R3-pRARE2
Sequence (Q9H6W3 183-641): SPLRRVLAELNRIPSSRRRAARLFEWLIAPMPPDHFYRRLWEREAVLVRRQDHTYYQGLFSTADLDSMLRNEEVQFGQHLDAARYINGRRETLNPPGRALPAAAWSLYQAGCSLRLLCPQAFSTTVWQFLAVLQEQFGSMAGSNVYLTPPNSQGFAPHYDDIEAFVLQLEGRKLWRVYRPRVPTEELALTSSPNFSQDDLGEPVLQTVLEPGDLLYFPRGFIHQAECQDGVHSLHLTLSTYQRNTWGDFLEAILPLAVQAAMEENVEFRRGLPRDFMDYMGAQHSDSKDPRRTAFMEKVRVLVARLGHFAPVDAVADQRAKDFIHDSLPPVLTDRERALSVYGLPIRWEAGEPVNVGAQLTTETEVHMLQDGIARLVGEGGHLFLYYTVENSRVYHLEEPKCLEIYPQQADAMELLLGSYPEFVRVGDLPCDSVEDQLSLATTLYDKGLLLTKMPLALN
Experiment: NO66 MS (RapidFire) hydroxylation inhibition assay, Rpl8 peptide
Assay type: biochemical
Details: Table S12; read-out: NO66 IC50 (Table S12)
endpoint: IC50 (µM)
Report as a plain number; the unit µM is understood.

>  <compound>
O=C(O)c1ccnc(C(=O)O)c1 [2,4-PDCA, pyridine-2,4-dicarboxylate, reference compound]

>  <numericValue>
0.168

$$$$

stdin: Suppose we examine the compound `COC(=O)c1cnc(SCCCc2ccccc2)[nH]c1=O` ; what IC50 value has been reported?
stdout: 20.1

---

# Lookup of reported IC50 keyed by entry
Target: MINA53 (Homo sapiens, UniProt Q8IUF8)
Construct: MINA53 (Met1-Val464 and Ala26-Val464); histidine tag (TEV-cleavable) (cleaved yes); made in house; host or cells: E. coli BL21(DE3)-R3-pRARE2
Sequence (Q8IUF8 1-464 isoform Q8IUF8-4): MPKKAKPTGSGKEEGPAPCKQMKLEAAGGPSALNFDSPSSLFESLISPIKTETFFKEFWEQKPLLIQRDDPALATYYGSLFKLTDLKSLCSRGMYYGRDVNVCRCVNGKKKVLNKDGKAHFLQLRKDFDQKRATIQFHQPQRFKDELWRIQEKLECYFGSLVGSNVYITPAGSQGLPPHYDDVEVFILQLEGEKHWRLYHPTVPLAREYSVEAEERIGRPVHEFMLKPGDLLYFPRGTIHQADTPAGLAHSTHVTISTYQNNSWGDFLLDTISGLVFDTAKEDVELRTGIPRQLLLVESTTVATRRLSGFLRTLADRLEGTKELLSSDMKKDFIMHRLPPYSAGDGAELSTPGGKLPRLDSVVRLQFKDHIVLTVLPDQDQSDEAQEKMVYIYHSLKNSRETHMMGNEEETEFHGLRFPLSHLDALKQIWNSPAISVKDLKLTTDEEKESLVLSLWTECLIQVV
Assay: MINA53 MS (RapidFire) hydroxylation inhibition assay, Rpl27a peptide
Format: biochemical
Conditions: MS based; enzyme 150 nM; means ± SD of at least three experiments; read-out: IC50 MINA53 (150 nM)
Report as a plain number; the unit µM is understood.

stdin: Suppose we examine the molecule CCCCCSc1ncc(C(=O)O)c(=O)[nH]1 [compound 4] ; what IC50 value has been reported?
stdout: 4.3

stdin: Suppose we examine the molecule O=C(O)c1cnc(SCCCCc2ccccc2)[nH]c1=O [compound 11] ; what IC50 value has been reported?
stdout: 2.4

stdin: Suppose we examine the molecule O=C(O)c1cnc(SCCCc2ccccc2)[nH]c1=O [compound 10] ; what IC50 value has been reported?
stdout: 1.5

stdin: Suppose we examine the molecule CCCCCCCCCSc1ncc(C(=O)O)c(=O)[nH]1 [compound 5] ; what IC50 value has been reported?
stdout: 65.4

stdin: Suppose we examine the molecule O=C(O)c1c[nH]c(=S)[nH]c1=O [compound 1] ; what IC50 value has been reported?
stdout: 208

---

Target sequence: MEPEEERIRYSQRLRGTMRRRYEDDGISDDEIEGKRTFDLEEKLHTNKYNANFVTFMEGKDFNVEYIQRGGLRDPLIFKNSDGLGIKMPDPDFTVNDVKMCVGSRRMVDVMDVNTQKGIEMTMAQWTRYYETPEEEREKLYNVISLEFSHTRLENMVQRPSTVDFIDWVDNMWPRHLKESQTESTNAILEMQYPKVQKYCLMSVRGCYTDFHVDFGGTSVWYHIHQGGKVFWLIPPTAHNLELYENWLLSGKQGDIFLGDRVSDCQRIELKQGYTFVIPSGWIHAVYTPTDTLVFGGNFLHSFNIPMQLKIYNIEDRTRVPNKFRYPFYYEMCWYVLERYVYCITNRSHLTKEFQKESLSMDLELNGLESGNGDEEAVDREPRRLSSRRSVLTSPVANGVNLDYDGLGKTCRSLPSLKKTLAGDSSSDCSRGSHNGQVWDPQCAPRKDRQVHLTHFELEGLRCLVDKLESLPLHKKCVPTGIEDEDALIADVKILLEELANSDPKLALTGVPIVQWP
Please assign Condition not met whenever IC50 is at or above 60 µM, and Condition met whenever it is below.

Solved cases (3 shown):
>  <smilesNotation>
O=C(CSc1ncc(C(=O)O)c(=O)[nH]1)c1ccccc1

>  <qualitativeLabel>
Condition met

$$$$
>  <smilesNotation>
O=C(O)c1cnc(SCCCCc2ccccc2)[nH]c1=O

>  <qualitativeLabel>
Condition not met

$$$$
>  <smilesNotation>
CCCCCSc1ncc(C(=O)O)c(=O)[nH]1

>  <qualitativeLabel>
Condition met

$$$$

Field: next compound
stdin: Would you kindly verify if IC50 of `O=C(O)c1cnc(SCc2ccccc2)[nH]c1=O` is strictly less than 60 µM?
stdout: Condition not met

---

Target: p300 (Homo sapiens)
Construct: purchased Reaction Biology Corporation, Malvern, PA, USA
Sequence (Q09472 1284-1673): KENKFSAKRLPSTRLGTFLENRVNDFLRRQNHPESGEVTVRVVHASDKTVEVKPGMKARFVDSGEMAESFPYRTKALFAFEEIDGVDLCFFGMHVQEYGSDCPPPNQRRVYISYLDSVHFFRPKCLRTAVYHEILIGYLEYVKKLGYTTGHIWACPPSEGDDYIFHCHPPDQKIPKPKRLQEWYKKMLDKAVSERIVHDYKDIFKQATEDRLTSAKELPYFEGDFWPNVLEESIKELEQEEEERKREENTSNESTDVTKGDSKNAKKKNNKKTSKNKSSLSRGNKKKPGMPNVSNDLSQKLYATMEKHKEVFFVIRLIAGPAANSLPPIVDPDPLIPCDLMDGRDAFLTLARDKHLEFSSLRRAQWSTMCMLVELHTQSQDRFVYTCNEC
Assay: HotSpot KAT assay
Assay type: biochemical
Conditions: 100 µM; means ± SD of three experiments; read-out: Residual Enzymatic Activity (%) p300
endpoint: remaining activity at 100 µM (%)
Report as a plain number; the unit % is understood.

See these solved cases before continuing.
>  <smilesNotation>
O=C(CSc1ncc(C(=O)O)c(=O)[nH]1)c1ccccc1

>  <remaining activity at 100 µM [%]>
106

$$$$
>  <smilesNotation>
O=C(O)c1cnc(SCc2ccccc2)[nH]c1=O

>  <remaining activity at 100 µM [%]>
107

$$$$

stdin: Suppose we examine the compound `CCCCSc1ncc(C(=O)O)c(=O)[nH]1` ; what remaining activity at 100 µM value has been reported?
stdout: 103

stdin: Suppose we examine the compound `O=C(O)c1cnc(SCCCCc2ccccc2)[nH]c1=O` ; what remaining activity at 100 µM value has been reported?
stdout: 98.6

stdin: Suppose we examine the compound `O=C(O)c1cnc(SCCc2ccccc2)[nH]c1=O` ; what remaining activity at 100 µM value has been reported?
stdout: 107

---

Target: FIH (Homo sapiens)
Sequence (Q9NWT6 whole entry): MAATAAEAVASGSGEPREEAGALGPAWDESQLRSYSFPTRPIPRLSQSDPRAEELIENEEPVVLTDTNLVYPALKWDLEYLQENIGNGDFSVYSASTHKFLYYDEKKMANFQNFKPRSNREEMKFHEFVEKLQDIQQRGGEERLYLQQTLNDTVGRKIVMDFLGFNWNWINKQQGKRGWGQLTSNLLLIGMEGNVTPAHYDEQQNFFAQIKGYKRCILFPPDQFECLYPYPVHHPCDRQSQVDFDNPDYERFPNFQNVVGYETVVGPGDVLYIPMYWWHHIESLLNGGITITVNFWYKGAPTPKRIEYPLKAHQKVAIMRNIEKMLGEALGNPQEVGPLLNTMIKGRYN
Please assign NO whenever IC50 is at or above 30 µM, and YES whenever it is below.

>  <smilesNotation>
O=C(O)c1cnc(SCC2CCCCC2)[nH]c1=O

>  <qualitativeLabel>
YES

$$$$
>  <smilesNotation>
CCCCCSc1ncc(C(=O)O)c(=O)[nH]1

>  <qualitativeLabel>
YES

$$$$
>  <smilesNotation>
O=C(O)/C=C\Sc1ncc(C(=O)O)c(=O)[nH]1

>  <qualitativeLabel>
NO

$$$$

stdin: Would you kindly verify if IC50 of `O=C(O)c1c[nH]c(=S)[nH]c1=O` is strictly less than 30 µM?
stdout: NO

stdin: Would you kindly verify if IC50 of `O=C(O)c1cnc(SCCc2ccccc2)[nH]c1=O` is strictly less than 30 µM?
stdout: YES

stdin: Would you kindly verify if IC50 of `CCCCSc1ncc(C(=O)O)c(=O)[nH]1` is strictly less than 30 µM?
stdout: YES

---

System: U-87MG malignant glioma
Experiment: MTT cell viability assay
Format: cell-based, human
Conditions: 72, 96, 120 h, 10 to 100 μM, 10′ to a similar extent as 10

>  <smilesNotation>
O=C(O)c1cnc(SCCc2ccccc2)[nH]c1=O

>  <targetOfAssay>
U-87MG malignant glioma

>  <effect on cell viability, U-87MG>
sensitive

$$$$
>  <smilesNotation>
O=C(O)c1cnc(SCCCc2ccccc2)[nH]c1=O

>  <targetOfAssay>
U-87MG malignant glioma

>  <effect on cell viability, U-87MG>
sensitive

$$$$

---

# pIC50 per entry for FIH (Homo sapiens, UniProt Q9NWT6)
# log scale: pIC50 equals minus log10 of the concentration in mol/L

See these solved cases before continuing.
>  <smilesNotation>
O=C(O)c1cnc(SCc2ccccc2)[nH]c1=O

>  <numericValue>
4.69

$$$$
>  <smilesNotation>
O=C(O)c1cnc(SCCCCc2ccccc2)[nH]c1=O

>  <numericValue>
4.72

$$$$

stdin: Any idea what pIC50 came out for `CCCCCCCCCSc1ncc(C(=O)O)c(=O)[nH]1` on FIH (Homo sapiens, UniProt Q9NWT6)?
stdout: 5.40

stdin: Any idea what pIC50 came out for `O=C(CSc1ncc(C(=O)O)c(=O)[nH]1)c1ccccc1` on FIH (Homo sapiens, UniProt Q9NWT6)?
stdout: 4.71

stdin: Any idea what pIC50 came out for `CSc1ncc(C(=O)O)c(=O)[nH]1` on FIH (Homo sapiens, UniProt Q9NWT6)?
stdout: 4.82

---

Target: KDM6B (Homo sapiens, UniProt O15054)
Sequence (O15054 1141-1643 limits assumed): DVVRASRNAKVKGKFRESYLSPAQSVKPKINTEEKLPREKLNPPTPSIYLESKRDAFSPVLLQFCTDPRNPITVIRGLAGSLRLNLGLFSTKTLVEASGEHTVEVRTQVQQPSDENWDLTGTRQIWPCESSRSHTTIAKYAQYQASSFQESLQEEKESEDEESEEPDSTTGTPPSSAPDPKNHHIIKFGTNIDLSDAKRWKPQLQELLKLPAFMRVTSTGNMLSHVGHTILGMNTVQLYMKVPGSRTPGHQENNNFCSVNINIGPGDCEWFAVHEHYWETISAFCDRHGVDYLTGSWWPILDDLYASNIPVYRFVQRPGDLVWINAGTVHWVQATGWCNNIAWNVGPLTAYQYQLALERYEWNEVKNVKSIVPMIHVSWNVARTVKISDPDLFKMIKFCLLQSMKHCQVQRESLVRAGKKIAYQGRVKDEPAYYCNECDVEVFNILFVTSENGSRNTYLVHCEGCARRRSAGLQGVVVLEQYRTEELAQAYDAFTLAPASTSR
# Lookup of reported IC50 keyed by entry

See these solved cases before continuing.
>  <compound>
CCCCCCCCCSc1ncc(C(=O)O)c(=O)[nH]1 [compound 5]

>  <IC50>
67.1 µM

$$$$
>  <compound>
O=C(O)c1c[nH]c(=S)[nH]c1=O [compound 1]

>  <IC50>
> 100 µM

$$$$

// next item, IC50 requested
stdin: Suppose we examine the compound O=C(O)c1cnc(SCC2CCCCC2)[nH]c1=O [compound 6] ; what IC50 value has been reported?
stdout: 38.1 µM

---

Target: MINA53 (Homo sapiens)
Construct: MINA53 (Met1-Val464 and Ala26-Val464); histidine tag (TEV-cleavable) (cleaved yes); made in house; host or cells: E. coli BL21(DE3)-R3-pRARE2
Assay: MINA53 MS (RapidFire) hydroxylation inhibition assay, Rpl27a peptide
Format: biochemical
Details: MS based; enzyme 150 nM; means ± SD of at least three experiments; read-out: IC50 MINA53 (150 nM)
# Lookup of reported IC50 keyed by entry
Report as a plain number; the unit µM is understood.

See these solved cases before continuing.
>  <compound>
O=C(O)c1cnc(SCCc2ccccc2)[nH]c1=O [compound 9]

>  <endpoint>
IC50

>  <numericValue>
1.6

$$$$
>  <compound>
O=C(O)c1cnc(SCC2CCCCC2)[nH]c1=O [compound 6]

>  <endpoint>
IC50

>  <numericValue>
5

$$$$

// next item, IC50 requested
stdin: Suppose we examine the compound O=C(O)c1cnc(SCc2ccccc2)[nH]c1=O [compound 7] ; what IC50 value has been reported?
stdout: 3.8
